# method description: OV-KATE Cancer Cell Toxicity qHTS against the NCATS CANVASS Library (AID 1347345)
# experimental setup: OV-KATE cells viability, CellTiter-Glo luminescence, 72 h; series mostly up to 38.3 µM
Results filed as inconclusive are left out. The source made the active and inactive calls. The call rests on the fitted dose curve; in most records, active means well fitted cell-killing curve with a large enough effect; inconclusive means small, poorly fitted or top-dose-only effect; inactive means flat fitted curve, though single readings scatter.

{"compound": "CN1CC[C@]23c4ccccc4N[C@H]1[C@]21CCN(C)[C@H]3Nc2ccccc21", "outcome": "inactive"}
{"compound": "C=C[C@@]1(C)CC[C@@H]([C@H](C)C(C)=O)O1", "outcome": "inactive"}
{"compound": "COc1ccc(-c2oc3cc(OC)cc(OC)c3c(=O)c2O)cc1", "outcome": "inactive"}
{"compound": "COc1cc2c(cc1OC)[C@@H](c1ccc3c(c1)OCO3)C(C)[C@@H](C)C2=O (stereo partly drawn)", "outcome": "inactive"}
{"compound": "O=Cc1ccc2n1C[C@]1(OC2)O[C@H](CO)[C@@H](O)[C@@H]1O", "outcome": "inactive"}
{"compound": "CC1=C[C@H]2[C@H]3C(=O)C(c4ccc(O)cc4)=C[C@@]3(c3ccc(O)cc3)[C@@H]1C(=O)[C@]2(C)O", "outcome": "inactive"}
{"compound": "COc1ccc([C@@H]2c3cc4c(cc3C(=O)C(C)C2C)OCO4)cc1OC (stereo partly drawn)", "outcome": "inactive"}
{"compound": "C=CC(CCCCC)C1C(=O)NC(=O)C1C(=O)C1C(/C=C/C)C=CC2CC(C(=O)O)CC(C)C21 (stereo not drawn)", "outcome": "inactive"}
